Experiment: chemical genetic growth profiling, strain panel (AID 1159580);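 note: tested at 20 µM; growth read once vehicle control cultures reached saturation at 30 °C; lower values mean less growth of the strain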
Condition Notes: S. cerevisiae deletion strains, growth OD, locus YEL003W, strain gim4
The campaign covered roughly 5,500 compounds. About 2,000 (36%) were called active. Not shown: some 18% with an inconclusive outcome. Cut-off read from the data, not from the text of the source: active = normalized growth mostly below about 0.91 (no sharp cut-off); inconclusive = no clear call, values can overlap the other calls; inactive = mostly above about 0.92. Some of the results follow.
Outcomes: active, inactive

# Compound, Discrete Label
data = [
    ("CCC1(c2ccccc2)C(=O)NCNC1=O", "inactive"),
    ("COC1C(O)C(O)C(O)[C@@H](O)C1O (stereo partly specified)", "inactive"),
    ("COc1ccc2cc1Oc1ccc(cc1)C[C@H]1c3c(cc4c(c3Oc3cc5c(cc3OC)CCN(C)[C@@H]5C2)OCO4)CCN1C", "inactive"),
    ("S=C=NCc1ccccc1", "active"),
    ("CCCCOc1ccc(C(=O)CCN2CCCCC2)cc1", "active"),
    ("CC1(C)C2CC[C@]3(C)C(C(=O)C=C4[C@@H]5C[C@@](C)(C(=O)O)CC[C@]5(C)CC[C@]43C)[C@@]2(C)CC[C@@H]1O (stereo partly specified)", "inactive"),
    ("OCCN(CCO)c1nc(N2CCCCC2)c2nc(N(CCO)CCO)nc(N3CCCCC3)c2n1", "inactive"),
    ("CCC1(C)CC(=O)NC1=O (stereo unspecified)", "inactive"),
    ("CCC1(c2ccc(N)cc2)CCC(=O)NC1=O (stereo unspecified)", "inactive"),
    ("Cc1ccc(O)cc1", "inactive"),
    ("COC(=O)COc1cc(Cl)c(Cl)cc1Cl", "inactive"),
    ("Cn1cc[nH]c1=S", "inactive"),
    ("COc1ccc(C[C@H]2NC[C@H](O)[C@H]2OC(C)=O)cc1", "inactive"),
    ("COc1ccc(-c2coc3c(OC)c(OC)cc(O)c3c2=O)cc1", "inactive"),
    ("OC(CCN1CCCCC1)(c1ccccc1)c1ccccc1", "inactive"),
    ("CC[C@H]1OC(=O)C[C@@H](O)[C@H](C)[C@@H](O[C@@H]2O[C@H](C)[C@@H](O[C@H]3C[C@@](C)(O)[C@@H](O)[C@H](C)O3)[C@H](N(C)C)[C@H]2O)[C@@H](CC=O)C[C@@H](C)C(=O)/C=C/C(C)=C/[C@@H]1CO[C@@H]1O[C@H](C)[C@@H](O)[C@@H](OC)[C@H]1OC", "inactive"),
    ("O=C(O)COc1cc(Cl)c(Cl)cc1Cl", "inactive"),
    ("CC(C)[N+](C)(CCOC(=O)C1c2ccccc2Oc2ccccc21)C(C)C", "inactive"),
    ("CC1(C)C2CC[C@]3(C)C(C(=O)C=C4[C@H]5C[C@@](C)(C(=O)O)CC[C@]5(C)CC[C@]43C)[C@@]2(C)CC[C@@H]1O (stereo partly specified)", "inactive"),
    ("CCCCOc1ccc(OCCCN2CCOCC2)cc1", "inactive"),
    ("COc1ccc(-c2cc(=O)c3c(O)cc(OC)c(OC)c3o2)c(OC)c1", "inactive"),
]
